# Test system: α1-antitrypsin Z variant (ATZ)
# MEASUREMENT PROTOCOL: Steady state levels of ATZ in HTO/Z cell line (immunoblot); activity of G2 analogs
# Type: cell-based, human
# PARTICULARS: G2 and G2 analogs; positive activity if shown to have any activity, not quantified
EXPERIMENTAL ENDPOINT: Activity

Consider the reported Activity for these molecules:
COc1ccc2c(=O)n(C)ccc2c1 : Active
Cn1ccc2cc(N3CC4(COC4)C3)ccc2c1=O : Inactive
CNC(=O)c1cc(Cl)ccc1Oc1ccc(Cl)cc1 : Inactive
O=c1ccc2ccc(F)cc2[nH]1 : Active

Name the recorded Activity of the molecule listed here: CNC(=O)c1ccc(Cl)cc1OC [G2-55, 4-chloro-2-methoxy-N-methylbenzamide]
Inactive

Name the recorded Activity of the molecule listed here: `CNC(=O)c1cc(Cl)ccc1OC1CC1`
Active

----------
# Test system: α1-antitrypsin Z variant (ATZ)
# MEASUREMENT PROTOCOL: Steady state levels of ATZ in HTO/Z cell line (immunoblot); activity of G2 analogs
# Assay type: cell-based, human
# PARTICULARS: TABLE 1; assay not given
pIC50: −log10 of the molar value.
Documented pIC50 across a set of compounds

Consider the reported pIC50 for these compounds:
O=c1ccc2c(-c3ncccn3)cc(Cl)cc2[nH]1 [G2-197] : 5.00 to 6.00
O=c1ccc2ccc(F)cc2[nH]1 [G2-124, 7-fluoroquinolin-2(1H)-one] : 5.00 to 6.00
O=c1ccc2ccc(Cl)cc2[nH]1 [G2-69, 7-chloroquinolin-2(1H)-one] : 6.00 to 7.00
O=c1ccc2ccc(C3CC3)cc2[nH]1 [G2-156, 7-cyclopropylquinolin-2(1H)-one] : 5.00 to 6.00

Proceeding to the next compound to report its pIC50.
Name the recorded pIC50 of the compound listed here: O=c1ccc2c(Cl)cc(Cl)cc2[nH]1 [G2-115, 5,7-dichloroquinolin-2(1H)-one]
6.00 to 7.00

----------
# Tested on: α1-antitrypsin Z variant (ATZ)
# MEASUREMENT PROTOCOL: Steady state levels of ATZ in HTO/Z cell line (immunoblot); activity of G2 analogs
# Assay type: cell-based, human
# PARTICULARS: G2 and G2 analogs; positive activity if shown to have any activity, not quantified
EXPERIMENTAL ENDPOINT: Activity

Cn1ccc2cc(-c3cccnc3)ccc2c1=O [G2-43] : Inactive
Cn1ccc2cc(-c3ccncc3)ccc2c1=O [G2-42] : Active
Cn1ccc2cc(S(N)(=O)=O)ccc2c1=O [G2-67] : Inactive
COc1ccc(Cl)cc1C(=O)N(C)C [G2-13, 5-chloro-2-methoxy-N,N-dimethylbenzamide] : Active
Cn1ccc2cc(-c3ccn[nH]3)ccc2c1=O [G2-65] : Inactive

Name the recorded Activity of the compound listed here: CCCCCCOc1cc(Cl)cc2[nH]c(=O)ccc12 [G2-218, 7-chloro-5-(hexyloxy)quinolin-2(1H)-one]
Active

Name the recorded Activity of the compound listed here: COc1ccc(Cl)cc1C(=O)NCCCCO [G2-15]
Inactive

Name the recorded Activity of the compound listed here: CCCCc1ccc2c(=O)n(C)ccc2c1 [G2-60, 6-butyl-2-methylisoquinolin-1(2H)-one]
Inactive

Name the recorded Activity of the compound listed here: CNC(=O)c1cc(Cl)ccc1OCc1ccccc1 [G2-12-3, 2-(benzyloxy)-5-chloro-N-methylbenzamide]
Inactive

Name the recorded Activity of the compound listed here: O=c1ccc2c(-c3ccccc3)cc(Cl)cc2[nH]1 [G2-196, 7-chloro-5-phenylquinolin-2(1H)-one]
Active

Name the recorded Activity of the compound listed here: Cn1ccc2cc(N3CCCCC3)ccc2c1=O [G2-61]
Inactive

Name the recorded Activity of the compound listed here: Cn1ccc2cc(S(C)(=O)=O)ccc2c1=O [G2-29]
Active

Name the recorded Activity of the compound listed here: Cn1ncc2cc(Cl)ccc2c1=O [G2-51, 6-chloro-2-methylphthalazin-1(2H)-one]
Active

Name the recorded Activity of the compound listed here: O=c1ccc2c(Cl)cc(Cl)cc2[nH]1 [G2-115, 5,7-dichloroquinolin-2(1H)-one]
Active

Name the recorded Activity of the compound listed here: Cn1c(=O)ccc2cc(Cl)ccc21 [G2-58, 6-chloro-1-methylquinolin-2(1H)-one]
Inactive

Name the recorded Activity of the compound listed here: O=c1ccc2c(Cl)cc(-c3ccccc3)cc2[nH]1 [G2-233, 5-chloro-7-phenylquinolin-2(1H)-one]
Active

----------
# Test system: α1-antitrypsin Z variant (ATZ)
# MEASUREMENT PROTOCOL: Steady state levels of ATZ in HTO/Z cell line (immunoblot); activity of G2 analogs
# Type: cell-based, human
# PARTICULARS: G2 and G2 analogs; positive activity if shown to have any activity, not quantified
EXPERIMENTAL ENDPOINT: Activity

CN1CCNC(=O)c2cc(Cl)ccc21 : Inactive
Cn1ccc2ccccc2c1=O : Inactive
Cn1ccc2cc(C#N)ccc2c1=O : Inactive
O=c1ccc2ccc(C3CC3)cc2[nH]1 : Active

Name the recorded Activity of the compound listed here: `Cn1ccc2cc(-c3ccccn3)ccc2c1=O`
Inactive

Name the recorded Activity of the compound listed here: `CNC(=O)c1cc(Cl)ccc1OC1CCN(C2CCCC2)CC1`
Inactive

Name the recorded Activity of the compound listed here: `Cn1cnc2cc(Cl)ccc2c1=O`
Inactive

Name the recorded Activity of the compound listed here: CNC(=O)c1cc(Cl)ccc1OC [G2-3, 5-chloro-2-methoxy-N-methylbenzamide]
Active

----------
# Tested on: α1-antitrypsin Z variant (ATZ)
# MEASUREMENT PROTOCOL: Steady state levels of ATZ in HTO/Z cell line (immunoblot); activity of G2 analogs
# Type: cell-based, human
# PARTICULARS: TABLE 1; assay not given
pIC50: −log10 of the molar value.
Documented pIC50 across a set of molecules

Consider the reported pIC50 for these molecules:
O=c1ccc2c(N3CCCCC3)cc(Cl)cc2[nH]1 [G2-195] : 5.00 to 6.00
O=C(c1cc(Cl)c2ccc(=O)[nH]c2c1)N1CCCCC1 [G2-237] : 6.00 to 7.00
O=c1ccc2c(Cl)cc(-c3ccccc3)cc2[nH]1 [G2-233, 5-chloro-7-phenylquinolin-2(1H)-one] : 5.00 to 6.00
CCCCCCOc1cc(Cl)cc2[nH]c(=O)ccc12 [G2-218, 7-chloro-5-(hexyloxy)quinolin-2(1H)-one] : 6.00 to 7.00
O=c1ccc2c(-c3ccccc3)cc(Cl)cc2[nH]1 [G2-196, 7-chloro-5-phenylquinolin-2(1H)-one] : 5.00 to 6.00

Give pIC50 for this entry on α1-antitrypsin Z variant (ATZ): CCCCCCOc1cc(Cl)c2ccc(=O)[nH]c2c1 [G-211, 5-chloro-7-(hexyloxy)quinolin-2(1H)-one]
5.00 to 6.00

Give pIC50 for this entry on α1-antitrypsin Z variant (ATZ): O=c1ccc2c(Cl)cc(N3CCCCC3)cc2[nH]1 [G2-235]
5.00 to 6.00

----------
# Test system: α1-antitrypsin Z variant (ATZ)
# MEASUREMENT PROTOCOL: Steady state levels of ATZ in HTO/Z cell line (immunoblot); activity of G2 analogs
# Assay type: cell-based, human
# PARTICULARS: G2 and G2 analogs; positive activity if shown to have any activity, not quantified
EXPERIMENTAL ENDPOINT: Activity

CN1Cc2cc(Cl)ccc2C1=O : Active
Cc1cn(C)c(=O)c2ccc(Cl)cc12 : Inactive
CNC(=O)c1cc(Cl)ccc1OCCC(C)C : Inactive
Cn1ccc2c(Cl)cccc2c1=O : Active
CN(C)c1ccc2c(=O)n(C)ccc2c1 : Inactive

Give Activity for this entry on α1-antitrypsin Z variant (ATZ): `O=c1ccc2c(-c3ncccn3)cc(Cl)cc2[nH]1`
Active

Give Activity for this entry on α1-antitrypsin Z variant (ATZ): `Cn1ccc2cc(N3CCCC3)ccc2c1=O`
Active

Give Activity for this entry on α1-antitrypsin Z variant (ATZ): `O=c1[nH]ccc2cc(Cl)ccc12`
Active

Give Activity for this entry on α1-antitrypsin Z variant (ATZ): `CN(c1ccccc1)c1ccc2c(=O)n(C)ccc2c1`
Active

Give Activity for this entry on α1-antitrypsin Z variant (ATZ): COc1ccc(Cl)cc1C(=O)NCC(C)C [G2-14, 5-chloro-N-isobutyl-2-methoxybenzamide]
Inactive

Give Activity for this entry on α1-antitrypsin Z variant (ATZ): `Cn1ccc2ccc(Cl)cc2c1=O`
Inactive

Give Activity for this entry on α1-antitrypsin Z variant (ATZ): `Cn1ccc2cccc(Cl)c2c1=O`
Inactive

Give Activity for this entry on α1-antitrypsin Z variant (ATZ): NC(=O)c1cc(Cl)ccc1OC(F)(F)F [G2-6, 5-chloro-2-(trifluoromethoxy)benzamide]
Inactive

Give Activity for this entry on α1-antitrypsin Z variant (ATZ): `O=c1ccc2c(Cl)cc(N3CCCCC3)cc2[nH]1`
Active

----------
# System: α1-antitrypsin Z variant (ATZ)
# MEASUREMENT PROTOCOL: Steady state levels of ATZ in HTO/Z cell line (immunoblot); activity of G2 analogs
# Format: cell-based, human
# PARTICULARS: G2 and G2 analogs; positive activity if shown to have any activity, not quantified
EXPERIMENTAL ENDPOINT: Activity

Consider the reported Activity for these compounds:
Cn1ccc2cc(-c3ncccn3)ccc2c1=O : Inactive
Cn1c(=O)ccc2ccc(Cl)cc21 : Active (Highly Active)
O=c1ccc2c(N3CCCCC3)cc(Cl)cc2[nH]1 : Active
CCCCCCOc1cc(Cl)c2ccc(=O)[nH]c2c1 : Active
Cn1c(=O)ccc2ccc(-c3cccnc3)cc21 : Inactive

Name the recorded Activity of the compound listed here: `Cn1ccc2cc(N3CCC(c4ccccc4)CC3)ccc2c1=O`
Inactive

Name the recorded Activity of the compound listed here: `Cn1ccc2cc(-c3ccc(Cl)cc3)ccc2c1=O`
Inactive

Name the recorded Activity of the compound listed here: `Cn1ccc2cc(Cl)ccc2c1=O`
Active (Highly Active)

Name the recorded Activity of the compound listed here: `Cn1c(=O)ccc2ccc(Nc3ccccn3)cc21`
Inactive

Name the recorded Activity of the compound listed here: Cn1c(=O)ccc2cc(Cl)ccc21 [G2-37, 6-chloro-1-methylquinolin-2(1H)-one]
Active

Name the recorded Activity of the compound listed here: `O=C(c1cc(Cl)c2ccc(=O)[nH]c2c1)N1CCCCC1`
Active

Name the recorded Activity of the compound listed here: `CCn1ccc2cc(Cl)ccc2c1=O`
Inactive

Name the recorded Activity of the compound listed here: CNC(=O)c1cccc(Cl)c1OC [G2-40, 3-chloro-2-methoxy-N-methylbenzamide]
Inactive

Name the recorded Activity of the compound listed here: COc1ccc(Cl)cc1C(N)=O [G2, 5-chloro-2-methoxybenzamide]
Active

Name the recorded Activity of the compound listed here: `O=c1c2ccc(Cl)cc2ccn1-c1ccccc1`
Inactive

Name the recorded Activity of the compound listed here: `O=c1ncc2cc(Cl)ccc2[nH]1`
Inactive

Name the recorded Activity of the compound listed here: `Cn1ccc2cc(Nc3ccccn3)ccc2c1=O`
Inactive

Name the recorded Activity of the compound listed here: `Cn1ccc2cc(Nc3ccccc3)ccc2c1=O`
Inactive

Name the recorded Activity of the compound listed here: CNC(=O)c1cc(F)ccc1OC [G2-4, 5-fluoro-2-methoxy-N-methylbenzamide]
Inactive

Name the recorded Activity of the compound listed here: `Cn1ccc2cc(-c3ccccc3)ccc2c1=O`
Active

Recorded values, source patent US12496297B1.
